Each entry below carries its reported Kd.
- System: RNA Seq6 (RNA, single strand) UGAAGGAAGGU
- assay-explanation: fluorescence polarization
- measurement-parameters: 100 mM NaCl; 20 mM HEPES, 25 °C, 0.5 μM compound
// return numeric value only (unit: µM, not printed)

CN1CCN(c2cc(F)c3cc(-c4ccc(Cl)cc4)c(=O)oc3c2)CC1 | 30.9
Cc1cn2cc(-c3cc4ccc(N5CCN(CCNC(=O)OC(C)(C)C)[C@@H](C)C5)cc4oc3=O)nc2c(C)n1 | 51.2
CN1CCN(c2cc(F)c3cc(-c4cccc(Cl)c4)c(=O)oc3c2)CC1 | 32.8
COc1cn2cc(-c3cc4ccc(N5CCNCC5)cc4oc3=O)nc2cn1 | 11.4
O=c1oc2cc(N3CCNCC3)ccc2cc1-c1cn2ccccc2n1 | 14.5
CN1CCN(c2ccc3cc(-c4cccc(Cl)c4)c(=O)oc3c2)CC1 | 35.9

Turning to the following compound.
[Q] // Kd lookup, key: CN1CCN(c2ccc3cc(-c4ccc(Cl)cc4)c(=O)oc3c2)CC1
[A] 30.6

----------
- System: RNA Seq6 (RNA, single strand) UGAAGGAAGGU
- assay-explanation: fluorescence polarization
- measurement-parameters: 100 mM NaCl; 20 mM HEPES, 25 °C, 0.5 μM compound
Recorded measurements of Kd, one per entry

Answered examples (2):
CN1CCN(c2ccc3cc(-c4ccccc4Cl)c(=O)oc3c2)CC1 | > >100 μM
Cc1c(-c2cccc(Cl)c2)c(=O)oc2cc(N3CCN(C)CC3)ccc12 | > >100 μM

Let's switch to this compound now.
[Q] May I ask what Kd has been recorded for Cc1c(-c2ccc(Cl)cc2)c(=O)oc2cc(N3CCN(C)CC3)ccc12 ?
[A] > >100 μM
